- assay-name: Dynamic solubility test (water, SGF, FaSSIF, FeSSIF; 37° C.; 1, 4 and 24 hours)
- Type: physicochemical
- assay-context: H2O, 37° C., 1 hr, XRPD of residual solid
value-type: FC: Crystalline form transformation

Q. So what's the measured FC: Crystalline form transformation for this one? "CCCCCCCC(=O)N[C@H](CN1CCCC1)[C@H](O)c1ccc2c(c1)OCCO2.CCCCCCCC(=O)N[C@H](CN1CCCC1)[C@H](O)c1ccc2c(c1)OCCO2.O.O.O=S(=O)(O)c1cccc2c(S(=O)(=O)O)cccc12"
A. No

Q. Which measured FC: Crystalline form transformation value corresponds to CCCCCCCC(=O)N[C@H](CN1CCCC1)[C@H](O)c1ccc2c(c1)OCCO2.CCCCCCCC(=O)N[C@H](CN1CCCC1)[C@H](O)c1ccc2c(c1)OCCO2.O=C(O)C(=O)O [Crystalline form A of oxalate] ?
A. No

Q. Sample CCCCCCCC(=O)N[C@H](CN1CCCC1)[C@H](O)c1ccc2c(c1)OCCO2 [Free crystalline form A, reference compound] — what was its FC: Crystalline form transformation?
A. No

Q. Field request: FC: Crystalline form transformation | item: "CCCCCCCC(=O)N[C@H](CN1CCCC1)[C@H](O)c1ccc2c(c1)OCCO2.CCCCCCCC(=O)N[C@H](CN1CCCC1)[C@H](O)c1ccc2c(c1)OCCO2.O=S(=O)(O)c1cccc2c(S(=O)(=O)O)cccc12"
A. Yes

* * *

- assay-name: Dynamic solubility test (water, SGF, FaSSIF, FeSSIF; 37° C.; 1, 4 and 24 hours)
- Type: physicochemical
- assay-context: H2O, 37° C., 4 hrs
value-type: pH (of filtrate)

Q. Bench note: what pH (of filtrate) did CCCCCCCC(=O)N[C@H](CN1CCCC1)[C@H](O)c1ccc2c(c1)OCCO2.CCCCCCCC(=O)N[C@H](CN1CCCC1)[C@H](O)c1ccc2c(c1)OCCO2.O=C(O)C(=O)O [Crystalline form A of oxalate] show?
A. 7.51

Q. I have this compound here, CCCCCCCC(=O)N[C@H](CN1CCCC1)[C@H](O)c1ccc2c(c1)OCCO2 [Free crystalline form A, reference compound] , and I need its recorded pH (of filtrate).
A. 9.03

Q. Data request, read-out pH (of filtrate), for "CCCCCCCC(=O)N[C@H](CN1CCCC1)[C@H](O)c1ccc2c(c1)OCCO2.CCCCCCCC(=O)N[C@H](CN1CCCC1)[C@H](O)c1ccc2c(c1)OCCO2.O.O.O=S(=O)(O)c1cccc2c(S(=O)(=O)O)cccc12"
A. 7.33

Q. Quick check: pH (of filtrate) of "CCCCCCCC(=O)N[C@H](CN1CCCC1)[C@H](O)c1ccc2c(c1)OCCO2.CCCCCCCC(=O)N[C@H](CN1CCCC1)[C@H](O)c1ccc2c(c1)OCCO2.O=S(=O)(O)c1cccc2c(S(=O)(=O)O)cccc12" ?
A. 7.67

* * *

- assay-name: Dynamic solubility test (water, SGF, FaSSIF, FeSSIF; 37° C.; 1, 4 and 24 hours)
- Assay type: physicochemical
- assay-context: H2O, 37° C., 12 hrs, XRPD of residual solid
value-type: FC: Crystalline form transformation

Q. Form field: reported FC: Crystalline form transformation of "CCCCCCCC(=O)N[C@H](CN1CCCC1)[C@H](O)c1ccc2c(c1)OCCO2.CCCCCCCC(=O)N[C@H](CN1CCCC1)[C@H](O)c1ccc2c(c1)OCCO2.O=S(=O)(O)c1cccc2c(S(=O)(=O)O)cccc12"
A. Yes

Q. So what does the record say about FC: Crystalline form transformation for "CCCCCCCC(=O)N[C@H](CN1CCCC1)[C@H](O)c1ccc2c(c1)OCCO2.CCCCCCCC(=O)N[C@H](CN1CCCC1)[C@H](O)c1ccc2c(c1)OCCO2.O.O.O=S(=O)(O)c1cccc2c(S(=O)(=O)O)cccc12" ?
A. No

Q. Consider the compound shown here: CCCCCCCC(=O)N[C@H](CN1CCCC1)[C@H](O)c1ccc2c(c1)OCCO2 [Free crystalline form A, reference compound] What is its recorded FC: Crystalline form transformation?
A. No

Q. Find the recorded FC: Crystalline form transformation belonging to CCCCCCCC(=O)N[C@H](CN1CCCC1)[C@H](O)c1ccc2c(c1)OCCO2.CCCCCCCC(=O)N[C@H](CN1CCCC1)[C@H](O)c1ccc2c(c1)OCCO2.O=C(O)C(=O)O [Crystalline form A of oxalate] and report it.
A. No

* * *

- assay-name: Dynamic solubility test (water, SGF, FaSSIF, FeSSIF; 37° C.; 1, 4 and 24 hours)
- Assay type: physicochemical
- assay-context: H2O, 37° C., 4 hrs
value-type: S: Solubility (free concentration) (µg/mL)

Check out these entries, answers already filled in.
Q. Given "CCCCCCCC(=O)N[C@H](CN1CCCC1)[C@H](O)c1ccc2c(c1)OCCO2.CCCCCCCC(=O)N[C@H](CN1CCCC1)[C@H](O)c1ccc2c(c1)OCCO2.O=S(=O)(O)c1cccc2c(S(=O)(=O)O)cccc12" , state its recorded S: Solubility (free concentration).
A. 2000

Q. Name the reported S: Solubility (free concentration) value associated with the compound CCCCCCCC(=O)N[C@H](CN1CCCC1)[C@H](O)c1ccc2c(c1)OCCO2 [Free crystalline form A, reference compound]
A. 130

(a) CCCCCCCC(=O)N[C@H](CN1CCCC1)[C@H](O)c1ccc2c(c1)OCCO2.CCCCCCCC(=O)N[C@H](CN1CCCC1)[C@H](O)c1ccc2c(c1)OCCO2.O=C(O)C(=O)O [Crystalline form A of oxalate]
(b) CCCCCCCC(=O)N[C@H](CN1CCCC1)[C@H](O)c1ccc2c(c1)OCCO2.CCCCCCCC(=O)N[C@H](CN1CCCC1)[C@H](O)c1ccc2c(c1)OCCO2.O.O.O=S(=O)(O)c1cccc2c(S(=O)(=O)O)cccc12
Q. Lab note: check whether a or b has the lower measured S: Solubility (free concentration). Returns: label corresponding to the selected item.
A. b
(b: 1900 µg/mL, a: 7800 µg/mL)

* * *

- assay-name: Dynamic solubility test (water, SGF, FaSSIF, FeSSIF; 37° C.; 1, 4 and 24 hours)
- Assay type: physicochemical
- assay-context: FaSSIF, 37° C., 1 hr
value-type: S: Solubility (free concentration) (µg/mL)

(1) CCCCCCCC(=O)N[C@H](CN1CCCC1)[C@H](O)c1ccc2c(c1)OCCO2.CCCCCCCC(=O)N[C@H](CN1CCCC1)[C@H](O)c1ccc2c(c1)OCCO2.O.O.O=S(=O)(O)c1cccc2c(S(=O)(=O)O)cccc12
(2) CCCCCCCC(=O)N[C@H](CN1CCCC1)[C@H](O)c1ccc2c(c1)OCCO2 [Free crystalline form A, reference compound]
Q. Higher S: Solubility (free concentration) between 1 and 2 ? // output: label of the selected item
A. 2

* * *

- assay-name: Dynamic solubility test (water, SGF, FaSSIF, FeSSIF; 37° C.; 1, 4 and 24 hours)
- Type: physicochemical
- assay-context: SGF, 37° C., 4 hrs
value-type: pH (of filtrate)

Q. Could you tell me which pH (of filtrate) is on file for "CCCCCCCC(=O)N[C@H](CN1CCCC1)[C@H](O)c1ccc2c(c1)OCCO2.CCCCCCCC(=O)N[C@H](CN1CCCC1)[C@H](O)c1ccc2c(c1)OCCO2.O.O.O=S(=O)(O)c1cccc2c(S(=O)(=O)O)cccc12" ?
A. 1.88

Q. Recorded pH (of filtrate) for "CCCCCCCC(=O)N[C@H](CN1CCCC1)[C@H](O)c1ccc2c(c1)OCCO2.CCCCCCCC(=O)N[C@H](CN1CCCC1)[C@H](O)c1ccc2c(c1)OCCO2.O=S(=O)(O)c1cccc2c(S(=O)(=O)O)cccc12" , please?
A. 1.75

(1) CCCCCCCC(=O)N[C@H](CN1CCCC1)[C@H](O)c1ccc2c(c1)OCCO2.CCCCCCCC(=O)N[C@H](CN1CCCC1)[C@H](O)c1ccc2c(c1)OCCO2.O=C(O)C(=O)O [Crystalline form A of oxalate]
(2) CCCCCCCC(=O)N[C@H](CN1CCCC1)[C@H](O)c1ccc2c(c1)OCCO2 [Free crystalline form A, reference compound]
Q. Between the two listed entries 1 and 2 , which has its pH (of filtrate) at the higher number? // respond with label for picked entry
A. 2
(2: 7.26, 1: 2.17)
